Can you tell me neutralization IC50 for the items I'm about to list?
# Study target: Env of HIV-1 strain 250-4 (HIV-1)
# Test: cell-based or functional assay

Problem: // lookup neutralization IC50 for γ3κ5 (antibody, V domains shown) VH: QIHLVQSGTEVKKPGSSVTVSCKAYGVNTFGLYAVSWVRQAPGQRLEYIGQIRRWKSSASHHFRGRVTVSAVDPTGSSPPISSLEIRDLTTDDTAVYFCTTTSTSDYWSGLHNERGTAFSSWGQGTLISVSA VL: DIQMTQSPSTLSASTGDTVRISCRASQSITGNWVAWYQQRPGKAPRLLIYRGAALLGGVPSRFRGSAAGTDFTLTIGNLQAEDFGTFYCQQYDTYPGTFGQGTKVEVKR
Result: > 15 µg/mL

Problem: // lookup neutralization IC50 for γ52κ5 (antibody, V domains shown) VH: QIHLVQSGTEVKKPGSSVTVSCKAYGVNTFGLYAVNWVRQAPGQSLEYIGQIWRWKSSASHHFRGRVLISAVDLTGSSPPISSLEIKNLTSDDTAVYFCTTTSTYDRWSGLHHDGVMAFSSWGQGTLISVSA VL: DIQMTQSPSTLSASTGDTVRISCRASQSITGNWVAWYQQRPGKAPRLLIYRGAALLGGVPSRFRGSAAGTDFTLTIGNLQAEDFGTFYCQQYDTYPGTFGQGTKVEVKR
Result: > 15 µg/mL

Problem: // lookup neutralization IC50 for γ20κ19 (antibody, V domains shown) VH: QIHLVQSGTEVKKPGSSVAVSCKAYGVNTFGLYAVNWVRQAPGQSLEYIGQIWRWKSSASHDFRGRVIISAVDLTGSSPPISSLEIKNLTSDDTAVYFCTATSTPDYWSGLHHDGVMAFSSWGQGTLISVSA VL: DIQMTQSPSTLSASVGDTVRISCRASQSITGGWLAWYHQRPGKAPRLLIYRGSRLLGGVPSRFSGSAAGTGFTLTIANLQAEDFGTFYCQQYDTYPGTFGQGTKVEVKR
Result: > 15 µg/mL
